# reported growth; entries follow
# Tested on: SF-268 CNS
# test protocol: NCI-60 one-dose screen, 48 h (100 = growth as untreated, 0 = no growth, -100 = all killed)
# condition notes: 10 µM unless noted
About 83,000 compounds went through this panel and 20% of them were active in at least one assay; those are over-represented in the sample as a whole.

compound | target | units symbol | growth
COc1ccc(Nc2ncc(Br)c(NCCCNC(=O)C3CCC3)n2)cc1 | SF-268 CNS | % | 23.4
COc1ccc(NC(=O)C(=O)c2c[nH]c3ccc(F)cc23)cc1 | SF-268 CNS | % | 94.7
O=C(NCc1cccnc1)c1cc(-c2csc3c(=O)cc(N4CCOCC4)oc23)cc2c1OCCO2 | SF-268 CNS | % | 53
CCOc1ccc(S(=O)(=O)c2ccc(C)cc2)c2c1no[n+]2[O-] | SF-268 CNS | % | 99.1
CCN(CC)CCCNC(=O)c1ccc(N)cc1O | SF-268 CNS | % | 93.8
COC(=O)c1ccc(CSc2nnc(-c3ccncc3)o2)cc1 | SF-268 CNS | % | 101
Cn1ncc2c(Nc3ccc(Br)cc3)nc(Nc3ccc(Br)cc3)nc21 | SF-268 CNS | % | 57.6
COc1ccc(NC(=O)c2cccc(-c3cc(=O)c4c(O)c(OC)c(OC)cc4o3)c2)cc1 | SF-268 CNS | % | 54.6
CS(=O)(=O)c1ccc(-c2[nH]c3ccc(F)cc3c2/C=N/NC(N)=S)cc1 | SF-268 CNS | % | 39.8
C=C(C)[C@@H]1CC[C@]2(CN)CC[C@]3(C)[C@H](CC[C@@H]4[C@@]5(C)CCC(N)[C@@](C)(CO)[C@@H]5CC[C@]43C)[C@@H]12 (stereo not given in full) | SF-268 CNS | % | -79.5

---

# System: HT29 colon
# test protocol: NCI-60 one-dose screen, 48 h (100 = growth as untreated, 0 = no growth, -100 = all killed)
# condition notes: 10 µM unless noted
About 83,000 compounds went through this panel and 20% of them were active in at least one assay; those are over-represented in the sample as a whole. Activity calls are given as the source filed them. The calls were made as follows: active = growth percent below 10; inactive = the rest.

compound | growth
Cc1ccc(-n2nnc(C3=NCCc4c3[nH]c3ccc(Cl)cc43)c2C)cc1 | 74.4% (inactive)
COc1ccc(C2CC(c3ccc4ccccc4c3)=NN2c2nc(O)c(C3=c4cc(Cl)ccc4=NC3=O)s2)cc1 (stereo not given) | -46.5% (active)
COc1ccc(-c2c(N)n[nH]c2-c2ccccc2O)cc1OC | 112% (inactive)
Cl.Fc1c[c-]c(-c2ccccn2)c(F)c1.[Pt].c1ccc(P(c2ccccc2)C([PH+](c2ccccc2)c2ccccc2)[PH+](c2ccccc2)c2ccccc2)cc1 | 11.8% (inactive)
c1ccc2[nH]c(SSc3nc4ncncc4[nH]3)nc2c1 | 29.5% (inactive)
CC(C)OC(=O)NNC(=O)c1ccncc1 | 110% (inactive)
Clc1ccc2c(NCCCN3CCN(c4nc(N5CCOCC5)nc5ccccc45)CC3)ccnc2c1 | -19.2% (active)
CC(C)CCC[C@@H](C)[C@H]1CCC2C3=CCC4C(=O)C=CC(=O)C4C3CC[C@@]21C (stereo not given in full) | 11.3% (inactive)
Cc1c(C(N)=O)sc2nc(C)n(/N=c3\scc(-c4ccccc4)n3Cc3ccccc3)c(=O)c12 | 79.5% (inactive)
C/C(=N\NC(N)=S)c1nc2ccc(Cl)cc2[nH]1 | 32.8% (inactive)
CO[C@H]1/C=C/O[C@@]2(C)Oc3c(C)c(O)c4c(c3C2=O)C(=O)C(/C=N/N(c2ccccc2)c2ccccc2)=C(NC(=O)/C(C)=C\C=C\[C@H](C)[C@H](O)[C@@H](C)[C@@H](O)[C@@H](C)[C@H](OC(C)=O)[C@@H]1C)C4=O | -12.7% (active)
COc1c(C)cnc(CSc2nc(-c3ccc(C)cc3)cn2-c2ccc(Cl)cc2)c1C | 73.8% (inactive)
CC(=O)c1cc2c(o1)C(=O)c1ccccc1C2=O | -18.3% (active)
O=C1CC(c2ccc3c(c2)OCO3)Nc2cc3c(cc21)OCO3 (stereo not given) | 1.47% (active)
COc1cc2c(cc1OC)-c1ccc3cc4c(cc3c1N(CCN(C)C)C2)OCO4 | -45.8% (active)
C[C@H]1[C@H]2C3=CC[C@@H]4[C@@]5(C)C/C(=C/c6ccncc6)C(=O)C(C)(C)[C@@H]5CC[C@@]4(C)[C@]3(C)CC[C@@]2(C(=O)N2CCN(C)CC2)CC[C@@H]1C | 46.9% (inactive)
O=c1[nH]c(NCc2nnnn2-c2ccc(Br)cc2)nc2sc3c(c12)CCCC3 | 95.5% (inactive)
COc1ccc(-c2nnc(-c3ccc4c(c3)nc(-c3ccccc3)n4C3CCCCC3)o2)cc1 | 34.9% (inactive)
C=C1C(=O)O[C@H]2[C@H]1CC/C(COC(=O)/C=C\C(=O)NCc1ccc(Cn3c(=O)sn(-c4ccc(Cl)cc4)c3=O)cc1)=C\CC[C@@]1(C)O[C@@H]21 | -28.3% (active)
CC(=O)Nc1ccc2c(c1)Cc1c(F)cccc1-2 | 111% (inactive)

These data points were gathered from PubChem BioAssay (NCI).
